assay-text: Moisture sorption/desorption studies (hygrostat, storage at different temperatures and relative humidity)
Type: physicochemical
settings: 37° C., 94% RH, 15 d; hydrochloride monohydrate
Structures can show the parent of a compound that is named as a salt.
assay-endpoint: water content (Table III) (%)
Write it as a number; the unit % goes unstated.

Input line: Name the recorded water content (Table III) for CN1C2CCC1CC(NC(=O)n1c(=O)[nH]c3ccccc31)C2 (stereo not shown) [Compound 2a, hydrochloride monohydrate] .
Output line: 5.48

----------
assay-text: Moisture sorption/desorption studies (hygrostat, storage at different temperatures and relative humidity)
Format: physicochemical
settings: Room Temperature, 75% RH, 40 d
assay-endpoint: water content (Table III)
Record the result as number plus unit.

Input line: Name the recorded water content (Table III) for CN1C2CCC1CC(NC(=O)n1c(=O)[nH]c3ccccc31)C2 (stereo not shown) [Compound 1a, reference compound] .
Output line: 4.95%

----------
assay-text: Moisture sorption/desorption studies (hygrostat, storage at different temperatures and relative humidity)
Format: physicochemical
settings: Room Temperature, 75% RH, 2 h; hydrochloride monohydrate
Where a name gives a salt, the structure may show the parent alone.
assay-endpoint: water content (Table III) (%)
Write it as a number; the unit % goes unstated.

Input line: Name the recorded water content (Table III) for CN1C2CCC1CC(NC(=O)n1c(=O)[nH]c3ccccc31)C2 (stereo not shown) [Compound 2a, hydrochloride monohydrate] .
Output line: 5.46

----------
assay-text: Moisture sorption/desorption studies (hygrostat, storage at different temperatures and relative humidity)
Format: physicochemical
settings: Room Temperature, 75% RH, 20 d; hydrochloride monohydrate
Structures can show the parent of a compound that is named as a salt.
assay-endpoint: water content (Table III) (%)
Write it as a number; the unit % goes unstated.

Input line: Name the recorded water content (Table III) for CN1C2CCC1CC(NC(=O)n1c(=O)[nH]c3ccccc31)C2 (stereo not shown) [Compound 2a, hydrochloride monohydrate] .
Output line: 5.41

----------
assay-text: Moisture sorption/desorption studies (hygrostat, storage at different temperatures and relative humidity)
Assay type: physicochemical
settings: 37° C., 75% RH, 6 h; hydrochloride monohydrate
Structures can show the parent of a compound that is named as a salt.
assay-endpoint: water content (Table III)
Record the result as number plus unit.

Input line: Name the recorded water content (Table III) for CN1C2CCC1CC(NC(=O)n1c(=O)[nH]c3ccccc31)C2 (stereo not shown) [Compound 2a, hydrochloride monohydrate] .
Output line: 5.79%

----------
assay-text: Moisture sorption/desorption studies (hygrostat, storage at different temperatures and relative humidity)
Type: physicochemical
settings: Room Temperature, 75% RH, 1 d
assay-endpoint: water content (Table III) (%)
Write it as a number; the unit % goes unstated.

Input line: Name the recorded water content (Table III) for CN1C2CCC1CC(NC(=O)n1c(=O)[nH]c3ccccc31)C2 (stereo not shown) [Compound 1a, reference compound] .
Output line: 1.25

----------
assay-text: Moisture sorption/desorption studies (hygrostat, storage at different temperatures and relative humidity)
Format: physicochemical
settings: 37° C., 94% RH, 9 d
assay-endpoint: water content (Table III) (%)
Write it as a number; the unit % goes unstated.

Input line: Name the recorded water content (Table III) for CN1C2CCC1CC(NC(=O)n1c(=O)[nH]c3ccccc31)C2 (stereo not shown) [Compound 1a, reference compound] .
Output line: 5.06

----------
assay-text: Moisture sorption/desorption studies (hygrostat, storage at different temperatures and relative humidity)
Format: physicochemical
settings: Room Temperature, 94% RH, 6 h
Protocol: The determination of the sorption isotherms was carried out in a hygrostat. At suitable intervals, the sample was weighed by means of a sample balance. The atmosphere in the hygrostat and therefore around the sample of compound 1a (1b) and 2a (2b) was conditioned and kept by a saturated solutions of a suitable salt: Na Cl saturated solution 75.3% RH/25° C. 74.8% RH/37° C. KNO3 saturated solution 93.7% RH/25° C. 90.0% RH/37° C. […]
assay-endpoint: water content (Table III) (%)
Write it as a number; the unit % goes unstated.

Input line: Name the recorded water content (Table III) for CN1C2CCC1CC(NC(=O)n1c(=O)[nH]c3ccccc31)C2 (stereo not shown) [Compound 1a, reference compound] .
Output line: 2.41

----------
assay-text: Accelerated stability tests in tablets and capsules
Format: physicochemical
settings: tablets and capsules, 3 months/55° C.; tablets and capsules in PVC/PVDC blister with aluminium foil; read-out: % degradation
assay-endpoint: degraded at 2160 h

Input line: Name the recorded degraded at 2160 h for CN1C2CCC1CC(NC(=O)n1c(=O)[nH]c3ccccc31)C2 (stereo not shown) [Compound 1a, reference compound] .
Output line: 3.2%

----------
assay-text: Moisture sorption/desorption studies (hygrostat, storage at different temperatures and relative humidity)
Format: physicochemical
settings: 37° C., 94% RH, 4 h; hydrochloride monohydrate
Counter-ions that a name gives are not always drawn.
assay-endpoint: water content (Table III) (%)
Write it as a number; the unit % goes unstated.

Input line: Name the recorded water content (Table III) for CN1C2CCC1CC(NC(=O)n1c(=O)[nH]c3ccccc31)C2 (stereo not shown) [Compound 2a, hydrochloride monohydrate] .
Output line: 5.47

----------
assay-text: Moisture sorption/desorption studies (hygrostat, storage at different temperatures and relative humidity)
Format: physicochemical
settings: Room Temperature, 75% RH, 2 h
assay-endpoint: water content (Table III)
Record the result as number plus unit.

Input line: Name the recorded water content (Table III) for CN1C2CCC1CC(NC(=O)n1c(=O)[nH]c3ccccc31)C2 (stereo not shown) [Compound 1a, reference compound] .
Output line: 0.68%

----------
assay-text: Moisture sorption/desorption studies (hygrostat, storage at different temperatures and relative humidity)
Assay type: physicochemical
settings: 37° C., 94% RH, 2 h; hydrochloride monohydrate
Where a name gives a salt, the structure may show the parent alone.
assay-endpoint: water content (Table III) (%)
Write it as a number; the unit % goes unstated.

Input line: Name the recorded water content (Table III) for CN1C2CCC1CC(NC(=O)n1c(=O)[nH]c3ccccc31)C2 (stereo not shown) [Compound 2a, hydrochloride monohydrate] .
Output line: 5.49

----------
assay-text: Moisture sorption/desorption studies (hygrostat, storage at different temperatures and relative humidity)
Assay type: physicochemical
settings: 37° C., 75% RH, 9 d; hydrochloride monohydrate
Structures can show the parent of a compound that is named as a salt.
assay-endpoint: water content (Table III)
Record the result as number plus unit.

Input line: Name the recorded water content (Table III) for CN1C2CCC1CC(NC(=O)n1c(=O)[nH]c3ccccc31)C2 (stereo not shown) [Compound 2a, hydrochloride monohydrate] .
Output line: 5.76%

----------
assay-text: Moisture sorption/desorption studies (hygrostat, storage at different temperatures and relative humidity)
Assay type: physicochemical
settings: 37° C., 94% RH, 5 d; hydrochloride monohydrate
Structures can show the parent of a compound that is named as a salt.
assay-endpoint: water content (Table III)
Record the result as number plus unit.

Input line: Name the recorded water content (Table III) for CN1C2CCC1CC(NC(=O)n1c(=O)[nH]c3ccccc31)C2 (stereo not shown) [Compound 2a, hydrochloride monohydrate] .
Output line: 5.49%

----------
assay-text: Moisture sorption/desorption studies (hygrostat, storage at different temperatures and relative humidity)
Format: physicochemical
settings: 37° C., 94% RH, 9 d; hydrochloride monohydrate
Counter-ions that a name gives are not always drawn.
assay-endpoint: water content (Table III) (%)
Write it as a number; the unit % goes unstated.

Input line: Name the recorded water content (Table III) for CN1C2CCC1CC(NC(=O)n1c(=O)[nH]c3ccccc31)C2 (stereo not shown) [Compound 2a, hydrochloride monohydrate] .
Output line: 5.48

----------
assay-text: Moisture sorption/desorption studies (hygrostat, storage at different temperatures and relative humidity)
Assay type: physicochemical
settings: Room Temperature, 94% RH, 2 h; hydrochloride monohydrate
Structures can show the parent of a compound that is named as a salt.
assay-endpoint: water content (Table III) (%)
Write it as a number; the unit % goes unstated.

Input line: Name the recorded water content (Table III) for CN1C2CCC1CC(NC(=O)n1c(=O)[nH]c3ccccc31)C2 (stereo not shown) [Compound 2a, hydrochloride monohydrate] .
Output line: 5.49

----------
assay-text: Moisture sorption/desorption studies (hygrostat, storage at different temperatures and relative humidity)
Assay type: physicochemical
settings: Room Temperature, 94% RH, 4 h
assay-endpoint: water content (Table III)
Record the result as number plus unit.

Input line: Name the recorded water content (Table III) for CN1C2CCC1CC(NC(=O)n1c(=O)[nH]c3ccccc31)C2 (stereo not shown) [Compound 1a, reference compound] .
Output line: 1.92%

----------
assay-text: Moisture sorption/desorption studies (hygrostat, storage at different temperatures and relative humidity)
Assay type: physicochemical
settings: 37° C., 75% RH, 5 d
assay-endpoint: water content (Table III) (%)
Write it as a number; the unit % goes unstated.

Input line: Name the recorded water content (Table III) for CN1C2CCC1CC(NC(=O)n1c(=O)[nH]c3ccccc31)C2 (stereo not shown) [Compound 1a, reference compound] .
Output line: 5.09

----------
assay-text: Moisture sorption/desorption studies (hygrostat, storage at different temperatures and relative humidity)
Assay type: physicochemical
settings: 37° C., 94% RH, 5 d
assay-endpoint: water content (Table III) (%)
Write it as a number; the unit % goes unstated.

Input line: Name the recorded water content (Table III) for CN1C2CCC1CC(NC(=O)n1c(=O)[nH]c3ccccc31)C2 (stereo not shown) [Compound 1a, reference compound] .
Output line: 5.06

These measurements were taken from patent US5468758A.
